Target: T1, IRF4 DBD D106Y (Homo sapiens, UniProt Q15306 20-132, D106Y)
T1 sequence: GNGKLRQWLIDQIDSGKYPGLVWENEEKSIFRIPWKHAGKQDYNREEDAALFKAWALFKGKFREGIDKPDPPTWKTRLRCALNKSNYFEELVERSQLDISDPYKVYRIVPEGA
Test: SPR two-state kinetic; FP: PBS + 0.05% Tween20, 5 nM DNA, 1 h, room temperature; SPR: Biacore S200, SA chip, protein 0.1-4500 nM, running buffer not given in material; errors are SD
Settings: protein: recombinant; tags: N-terminal His8-linker-His8-TEV, cleaved; label: 3' biotin; hairpin, TTTT loop
recorded endpoint: Kd (nM)
The answer is to be given in nM; state only the numeric part.

Summary for this binder, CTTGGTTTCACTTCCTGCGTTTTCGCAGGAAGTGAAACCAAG (structured_DNA) [IRE hairpin (biotin)] : Kd is 135
